Reported GI50 is given for each of the following molecules.
# Test system: SR leukemia
# experiment_description: NCI tumour cell line growth inhibition, 48 h

molecule	GI50
CCN(CC)c1ccc2c(c1)Oc1nc(N)c(C#N)c(N)c1C2Sc1ccc(SC)cc1 (centres undefined)	436 nM
Cn1c(=O)cc2c3c(c(NCCCO)ccc31)C(=O)c1ccccc1-2	694 nM
Nc1cc(-c2ccccc2)ccc1O	33900 nM

Alright, here's another molecule for you.
INPUT: Quick one: GI50 of `O=C(COc1cccc(/C=C2\COc3ccccc3C2=O)c1)Nc1nccs1` ?
OUTPUT: 1030 nM

---

# System: SR leukemia
# experiment_description: NCI tumour cell line growth inhibition, 48 h
attribute_measured: TGI

molecule	attribute_measured	reported
O=C(CSc1nc(=O)[nH]c2nc[nH]c12)Nc1ccccc1	TGI	> 100 µM
COc1ccc(O)c(C(=O)c2ccc(C(=O)O[C@@H]3CCCNC[C@H]3NC(=O)c3ccncc3)cc2)c1F	TGI	> 5.21 µM
COc1cc(-c2[nH]ccc2Cl)oc1C1=C2N=C3C=C2C(C(C)C)C1CCCCCCCC3 (stereo unspecified)	TGI	0.739 µM
CCCN1C(=O)CCC2=C1CCc1c2ccc(Cl)c1Cl	TGI	> 100 µM
NC1C/C(=N\O)c2c(I)sc(I)c21 (stereo unspecified)	TGI	> 100 µM

INPUT: Give its TGI value. Item: `CC(=O)Oc1ccc2c(c1)c1c(=O)oc(N(C)C)nc1n2Cc1ccccc1`
OUTPUT: > 100 µM

---

# Tested on: SNB-19 CNS
# experiment_description: NCI tumour cell line growth inhibition, 48 h
attribute_measured: TGI

Take a look at these entries with their results.
compound	TGI
O=c1[nH]c2ccc(CC(=S)N3CCOCC3)cc2s1	> 100 µM
CC(NS(C)(=O)=O)c1ccccc1 (stereo not given)	> 100 µM

INPUT: Requested field: TGI. Item: COc1cc(-c2[nH]ccc2Cl)oc1C1=C2N=C3C=C2C(C(C)C)C1CCCCCCCC3 (stereo not given)
OUTPUT: 5.92 µM

INPUT: Reported TGI, compound `O=c1/c(=C/c2ccc(Cl)cc2Cl)sc2nc3ccccc3n12` : ____
OUTPUT: > 100 µM

---

Listed below: TGI values for each entry.
# Tested on: SW-620 colon
# experiment_description: NCI tumour cell line growth inhibition, 48 h

Example entries begin here.
compound	TGI
O=P(O)(O)C(CSc1ccccc1)P(=O)(O)O	> 100 µM
CC(=O)C1=C(N=[N+]=[N-])c2cccc3cccc(c23)C1=O	55.1 µM
O=C(O)C1C2CC3C(OC(=O)C31)C2Br (configuration not stated)	> 100 µM
CC(=O)Nc1ccc(CNc2cc(=O)[nH]c(=O)[nH]2)cc1	> 100 µM

INPUT: What value of measured TGI is listed for `CC(=O)/C=C/C1=C(c2cc3ccccc3s2)c2ccccc2CC1` ?
OUTPUT: > 100 µM

INPUT: Would you kindly share the measured TGI for `CN(C)CCn1c2ccccc2c2nc3cc4ccccc4cc3nc21` ?
OUTPUT: 17.4 µM

---

# Test system: SN12C renal
# experiment_description: NCI tumour cell line growth inhibition, 48 h
The reader will find reported TGI values listed item by item below.

Some molecules with known TGI results, for comparison:
molecule	reported
O=C(Cn1nc(Br)c(Br)c1Br)c1ccccc1	> 100 µM
COC(=O)c1ccccc1NC(=O)/C(=N\NC(C)(C)C)C(C#N)c1nc(-c2ccc([N+](=O)[O-])cc2)cs1 (stereo unspecified)	> 100 µM
Cc1cc(NS(=O)(=O)c2ccc(NC(=O)c3cccc4c(N)c5ccccc5nc34)cc2)no1	40.3 µM
NC1C/C(=N\O)c2c(I)sc(I)c21 (stereo unspecified)	> 56.6 µM
COc1ccc(-c2n[nH]nc2-c2csc3ccccc23)cc1OC	79.9 µM
COCCOC(=O)C1=C(C)NC2=C(C(=O)CC(c3ccccc3OC)C2)C1c1cccc(O)c1 (stereo unspecified)	> 100 µM

INPUT: Any idea what TGI was measured for CC1C(c2ccc3c(c2)OCO3)c2cc3c(cc2OC1N1CCCC1)OCO3 (stereo unspecified) ?
OUTPUT: > 100 µM

INPUT: Quick check: TGI of `N#Cc1[nH]c(=O)n(-c2ccc(Cl)cc2)c1N` ?
OUTPUT: > 10 µM

INPUT: Query: TGI; subject: CC(ONC(=O)c1cc(C(F)(F)F)cc(C(F)(F)F)c1)C(=O)Nc1ccc(Cl)cc1 (stereo unspecified)
OUTPUT: > 100 µM

INPUT: Can you share its TGI? I mean this molecule: `COc1ccc2c(c1)C/C(=C\c1ccc(O)c(OC)c1)C2=O`
OUTPUT: > 100 µM

INPUT: Recorded TGI of `CC(=O)/C=C/C1=C(c2cc3ccccc3s2)c2ccccc2CC1` , please.
OUTPUT: > 100 µM
